The measurements presented in this section are drawn from the RepoRT retention time repository (doi:10.1016/j.scitotenv.2015.09.145).

assay: Waters Atlantis T3, 100 × 2.1 mm, 3 µm, 0.1 mL/min, estimated dead time 2.2 min; A: water + 0.01% formic acid; B: methanol; gradient (min/%B) 0/2 3/2 20/100 29/100; conditions: stereoisomer not certain
recorded_metric: LC retention time (min)

> print(dat)
                                   molecule    recorded.metric  readout.number
1  CCC1OC(=O)C(C)C(OC2CC(C)(OC)C(O)C(C)O2)C(C)C(OC2OC(C)CC(N(C)C)C2O)C(C)(OC)CC(C)C(=O)C(C)C(O)C1(C)O (stereo not drawn)  LC retention time            19.6
2  CN1CCC23c4c5ccc(O)c4OC2C(O)C=CC3C1C5 (stereo not drawn)  LC retention time            10.1
3                CN=C(NC#N)NCCSCc1nc[nH]c1C  LC retention time            11.9

###

Reported LC retention time values follow for various molecules
test: Waters Atlantis T3, 100 × 2.1 mm, 3 µm, 0.1 mL/min, estimated dead time 2.2 min; A: water + 0.01% formic acid; B: methanol; gradient (min/%B) 0/2 3/2 20/100 29/100; details: stereoisomer not certain
recorded_metric: LC retention time (min)

> print(dat)
                                   molecule    recorded.metric  readout.number
1       Nc1ccc(S(=O)(=O)Nc2cnc3ccccc3n2)cc1  LC retention time            17.8
2  COc1ccc(C(CN(C)C)C2(O)CCCCC2)cc1 (centres undefined)  LC retention time            16.6
3       CCn1cc(C(=O)O)c(=O)c2cc3c(cc21)OCO3  LC retention time            20.1
4  COc1cccc(C2(O)CCCCC2CN(C)C)c1 (centres undefined)  LC retention time            14.6
5          Cc1nc(NS(=O)(=O)c2ccc(N)cc2)oc1C  LC retention time              16
6  Cc1ccsc1C(=CCCN1CCCC(C(=O)O)C1)c1sccc1C (centres undefined)  LC retention time            19.6
7             Nc1ccc(S(=O)(=O)Nc2ccccn2)cc1  LC retention time            13.8
8  CCCC1CC(C(=O)NC(C(C)O)C2OC(SC)C(O)C(O)C2O)N(C)C1 (centres undefined)  LC retention time            13.3
9            CN(C)CCC=C1c2ccccc2COc2ccccc21  LC retention time            17.6
